Data provenance: ChEMBL document CHEMBL2331542

Tested on: Escherichia coli
Assay: Antibacterial activity against Escherichia coli isolate 12-4
Assay type: functional
So I've got a bunch of compounds here, and I need their MIC values.

Can you give me MIC for all of these, one by one?
1. CNC1CCN(c2nc3c(cc2F)c(=O)c(C(=O)O)cn3-c2ccc(F)cc2F)C/C1=N\OC (configuration not stated)
2. CNC1CCN(c2c(F)cc3c(=O)c(C(=O)O)cn(C4CC4)c3c2OC)C/C1=N\OC (configuration not stated)
3. O=C1NC2CCN(c3nc4c(cc3F)c(=O)c(C(=O)O)cn4C3CC3)CC2O1 (configuration not stated)
4. CO/N=C1\CN(c2c(F)cc3c(=O)c(C(=O)O)cn(C4CC4)c3c2OC)CCC1N (configuration not stated)
5. CNC1CCN(c2ccc3c(=O)c(C(=O)O)cn(C4CC4)c3n2)C/C1=N\OC (configuration not stated)
6. CO/N=C1\CN(c2c(F)cc3c(=O)c(C(=O)O)cn4c3c2OC[C@@H]4C)CCC1N (some centres not stated)
7. CO/N=C1\CN(c2nc3c(cc2F)c(=O)c(C(=O)O)cn3C2CC2)CC1CN (configuration not stated) [GEMIFLOXACIN]
8. CNC1CCN(c2c(F)cc3c(=O)c(C(=O)O)cn4c3c2OC[C@@H]4C)C/C1=N\OC (some centres not stated)

Response:
1. > 128 µg/mL
2. > 128 µg/mL
3. > 128 µg/mL
4. 128 µg/mL
5. > 128 µg/mL
6. > 128 µg/mL
7. 16 µg/mL
8. 128 µg/mL

I'm hoping you can list MIC for every compound here, please.
1. C[C@H]1COc2c(N3CCN(C)CC3)c(F)cc3c(=O)c(C(=O)O)cn1c23.C[C@H]1COc2c(N3CCN(C)CC3)c(F)cc3c(=O)c(C(=O)O)cn1c23.O [LEVOFLOXACIN]
2. CCO/N=C1\CN(c2nc3c(cc2F)c(=O)c(C(=O)O)cn3C2CC2)CCC1NC (configuration not stated)
3. CCO/N=C1\CN(c2c(F)cc3c(=O)c(C(=O)O)cn4c3c2OC[C@@H]4C)CCC1NC (some centres not stated)
4. CO/N=C1\CN(c2nc3c(cc2F)c(=O)c(C(=O)O)cn3C2CC2)CCC1N (configuration not stated)

Response:
1: 8 µg/mL; 2: > 128 µg/mL; 3: > 128 µg/mL; 4: > 128 µg/mL

Provide MIC values for the following items, in order.
1. CCO/N=C1\CN(c2c(F)cc3c(=O)c(C(=O)O)cn(C4CC4)c3c2OC)CCC1NC (configuration not stated)
2. CCO/N=C1\CN(c2c(F)cc3c(=O)c(C(=O)O)cn(C4CC4)c3c2F)CCC1NC (configuration not stated)
3. CCn1cc(C(=O)O)c(=O)c2cc(F)c(N3CCC(NC)/C(=N/OC)C3)c(F)c21 (configuration not stated)

Response:
1. > 128 µg/mL
2. > 128 µg/mL
3. > 128 µg/mL

Need MIC for each of these compounds.
1. CNC1CCN(c2nc3c(cc2F)c(=O)c(C(=O)O)cn3C2CC2)C/C1=N\OC (configuration not stated)
2. CNC1CCN(c2c(F)cc3c(=O)c(C(=O)O)cn(C4CC4)c3c2F)C/C1=N\OC (configuration not stated)

Response:
1: > 128 µg/mL; 2: > 128 µg/mL
